organism: Rattus norvegicus; assay: Increase in liver enzyme Alkaline phosphatase; assay type: functional; parameters: concentration or dose not given beside the values

# structure.notation, Activity
measured = [
    ("CC[C@H]1CCCCN1/C(S)=N/c1cc(Cl)ccc1C", "129%"),
    ("CCCC/N=C(\\S)Nc1cc(Cl)ccc1C", "44%"),
    ("CC[C@@H]1CCCCN1/C(S)=N/c1cc(Cl)ccc1C", "105%"),
    ("CCC/N=C(\\S)Nc1cc(C)ccc1C", "75%"),
    ("CCC/N=C(\\S)Nc1cc(Br)ccc1C", "44%"),
    ("CCC/N=C(\\S)Nc1cc(Cl)ccc1OC", "44%"),
]
